TESTED SYSTEM: delta opioid receptor (NG108-15 cell membranes) (Mus musculus, UniProt P32300)
Construct: NG108-15 cell membranes were purchased from Applied Cell Sciences (Rockville, Md.); host or cells: NG108-15 cell membranes (purchased)
Sequence (P32300 whole entry): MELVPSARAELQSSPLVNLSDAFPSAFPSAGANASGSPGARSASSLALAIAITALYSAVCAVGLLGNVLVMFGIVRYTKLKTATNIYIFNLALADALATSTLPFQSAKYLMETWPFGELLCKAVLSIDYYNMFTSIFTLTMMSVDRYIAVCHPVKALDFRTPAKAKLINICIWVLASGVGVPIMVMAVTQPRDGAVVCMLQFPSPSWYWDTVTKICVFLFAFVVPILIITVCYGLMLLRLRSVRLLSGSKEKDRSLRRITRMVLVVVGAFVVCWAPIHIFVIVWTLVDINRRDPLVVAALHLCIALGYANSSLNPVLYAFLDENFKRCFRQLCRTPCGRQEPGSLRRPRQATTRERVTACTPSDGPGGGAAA
ASSAY METHOD TEXT: [35S]GTPγS Binding Assay in NG108-15 Cell Membranes (Delta Opioid)
Format: biochemical
TEST PARAMETERS: NG108-15 cell membranes; stimulation of [35S]GTPγS binding; read-out: delta GTPγS EC50
OBSERVABLE: pEC50
Scale explanation: pEC50 corresponds to minus log10 of a concentration expressed in moles per litre.

Report pEC50 for CCN(CC)C(=O)c1cccc(-c2ccc3c(c2)Oc2c(O)cccc2C3C2CCNCC2)c1 (centres unmarked) [3j] please. 6.47

Could you share which pEC50 value was measured for CCN(CC)C(=O)c1ccc2c(c1)Oc1ccccc1C2C1CCNCC1 (centres unmarked) [8a] ? 6.58

---

TESTED SYSTEM: delta opioid receptor (Rattus norvegicus)
Construct: from tissue; host or cells: forebrain of male Wistar rats (particulate membrane preparation)
ASSAY METHOD TEXT: Rat Brain Delta Opioid Receptor Binding Assay
Please provide measured Ki for the entries that follow.
Enter your answer as a number in nM; do not include the unit.

Record request: Ki value, item CCN(CC)C(=O)c1ccc2c(c1)Oc1c(O)cccc1C2C1CCNCC1 (stereo not drawn) 2

Requested field: Ki. Item: Oc1cccc2c1Sc1cc(-c3cccnc3)ccc1C2C1CCN(Cc2ccccn2)CC1 (stereo not drawn) [18q] 0.4

Any idea what its Ki is? The molecule is Oc1cccc2c1Oc1cc(-c3cccnc3)ccc1C2C1CCN(Cc2cccs2)CC1 (stereo not drawn) 96.7

Using the record for COc1cccc2c1Sc1cc(-c3cccnc3)ccc1C2C1CCNCC1 (stereo not drawn) , report its Ki. 87.8

What measured Ki goes with CCN(CC)C(=O)c1ccc2c(c1)Oc1ccccc1C2C1CCN(Cc2cccs2)CC1 (stereo not drawn) [15a] ? 450

Return reported Ki; argument: CC(=O)Nc1ccccc1-c1ccc2c(c1)Sc1c(O)cccc1C2C1CCNCC1 (stereo not drawn) [14q] 0.2

Quick one: Ki of CC(=O)Nc1ccccc1-c1ccc2c(c1)Oc1c(O)cccc1C2C1CCNCC1 (stereo not drawn) ? 38.1

Name the reported Ki value associated with the molecule CCN(CC)C(=O)c1ccc2c(c1)Oc1ccccc1C2C1CCNCC1 (stereo not drawn) 15

Look up Ki for this molecule: CCN(CC)C(=O)c1ccc2c(c1)Oc1ccccc1C2C1CCN(Cc2ccccc2)CC1 (stereo not drawn) [10a] 75

Fill in the blank: the reported Ki of CC(=O)Nc1ccccc1-c1ccc2c(c1)Oc1ccccc1C2C1CCN(Cc2ccoc2)CC1 (stereo not drawn) is ____. 100

Look at this molecule and give its reported Ki. CCN(CC)C(=O)c1ccc2c(c1)Oc1ccccc1C2C1CCN(Cc2ccoc2)CC1 (stereo not drawn) 141

What does the data say about its Ki? Entry: Oc1cccc2c1Sc1cc(-c3ccncc3)ccc1C2C1CCN(Cc2ccccn2)CC1 (stereo not drawn) [15q] 0.1

Requested field: Ki. Item: CCN(CC)C(=O)c1ccc2c(c1)Oc1ccccc1C2C1CCN(Cc2ccccn2)CC1 (stereo not drawn) [11a] 2700

Name the recorded Ki for Oc1cccc2c1Sc1cc(-c3ccncc3)ccc1C2C1CCNCC1 (stereo not drawn) [12q] . 0.7

Item CCN(CC)C(=N)c1ccc2c(c1)Oc1ccccc1C2C1CCN(Cc2ccoc2)CC1 (stereo not drawn) has what recorded Ki? 16.1

Can you share its Ki? I mean this molecule: Oc1cccc2c1Sc1cc(-c3cccnc3)ccc1C2C1CCNCC1 (stereo not drawn) [10q] 0.2

Entry under review: C=CCN1CCC(C2c3ccc(-c4cccnc4)cc3Oc3c(O)cccc32)CC1 (stereo not drawn) . Reported Ki? 27.5

Need Ki of CC(=O)Nc1ccccc1-c1ccc2c(c1)Sc1c(O)cccc1C2C1CCN(Cc2ccccn2)CC1 (stereo not drawn) [19q] , thanks. 0.1

Form field: reported Ki of c1ccc(CN2CCC(C3c4ccccc4Oc4cc(-c5cccnc5)ccc43)CC2)cc1 (stereo not drawn) 783

Find the recorded Ki belonging to Oc1cccc2c1Oc1cc(-c3nnn[nH]3)ccc1C2C1CCNCC1 (stereo not drawn) and report it. 14

// query Ki value for entry Oc1cccc2c1Oc1cc(-c3cccnc3)ccc1C2C1CCNCC1 (stereo not drawn) 242

Which Ki value belongs to c1ccc(CN2CCC(C3c4ccccc4Oc4cc(-c5ccncc5)ccc43)CC2)nc1 (stereo not drawn) ? 2640

Tell me the measured Ki of Oc1cccc2c1Oc1cc(-c3cccnc3)ccc1C2C1CCN(Cc2ccccc2)CC1 (stereo not drawn) , please. 94

Name the recorded Ki for c1ccc2c(c1)Oc1cc(-c3ccncc3)ccc1C2C1CCN(Cc2ccoc2)CC1 (stereo not drawn) . 791

---

TESTED SYSTEM: delta opioid receptor (Rattus norvegicus, UniProt P33533)
Construct: from tissue; host or cells: forebrain of male Wistar rats (particulate membrane preparation)
Sequence (P33533 whole entry): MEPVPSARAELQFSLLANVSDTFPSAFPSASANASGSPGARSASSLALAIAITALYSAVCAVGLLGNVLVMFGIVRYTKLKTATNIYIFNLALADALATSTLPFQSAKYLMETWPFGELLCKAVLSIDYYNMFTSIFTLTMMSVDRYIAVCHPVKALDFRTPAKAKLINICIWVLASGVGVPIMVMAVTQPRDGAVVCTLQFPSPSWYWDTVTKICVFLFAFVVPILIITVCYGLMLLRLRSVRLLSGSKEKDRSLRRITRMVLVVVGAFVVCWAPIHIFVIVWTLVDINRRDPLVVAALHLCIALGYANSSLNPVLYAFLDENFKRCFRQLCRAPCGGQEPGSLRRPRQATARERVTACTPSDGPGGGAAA
ASSAY METHOD TEXT: Rat Brain Delta Opioid Receptor Binding Assay
Assign pKi to each entry below.
// pKi here means minus log10 of the molar concentration (mol/L)

Name the recorded pKi for CCN(CC)C(=O)c1ccc2c(c1)Oc1ccccc1C2C1CCN(Cc2ncc[nH]2)CC1 (stereo not drawn) [13a] . 6.97

Look up pKi: COc1cccc2c1Sc1cc(-c3ccncc3)ccc1C2C1CCNCC1 (stereo not drawn) [11q] 7.17

So what's the measured pKi for this one? CCN(CC)C(=O)c1ccc2c(c1)Oc1ccccc1C2C1CCN(C)CC1 (stereo not drawn) [16a] 5.94

For CCN(CC)C(=N)c1ccc2c(c1)Oc1ccccc1C2C1CCNCC1 (stereo not drawn) , what is its reported pKi? 7.29

Form field: reported pKi of CC(=O)Nc1ccccc1-c1ccc2c(c1)Oc1c(O)cccc1C2C1CCN(Cc2cccs2)CC1 (stereo not drawn) 10.00

I have this compound here, CC(=O)Nc1ccccc1-c1ccc2c(c1)Oc1c(O)cccc1C2C1CCN(Cc2ccccn2)CC1 (stereo not drawn) , and I need its recorded pKi. 10.00

Record request: pKi value, item CCN(CC)C(=O)c1ccc2c(c1)Oc1ccccc1C2C1CCN(CCc2ccccc2)CC1 (stereo not drawn) [12a] 5.42

What measured pKi goes with CCN(CC)C(=O)c1cccc(-c2ccc3c(c2)Oc2c(O)cccc2C3C2CCNCC2)c1 (stereo not drawn) ? 7.42

Reported pKi, compound O=c1[nH]c(-c2ccc3c(c2)Oc2ccccc2C3C2CCNCC2)no1 (stereo not drawn) : ____ 6.20
